Molecular target: 5-HT1A receptors (Homo sapiens, UniProt P08908)
Construct: expressed in transfected cells; host or cells: HEK 293
Sequence (P08908 whole entry): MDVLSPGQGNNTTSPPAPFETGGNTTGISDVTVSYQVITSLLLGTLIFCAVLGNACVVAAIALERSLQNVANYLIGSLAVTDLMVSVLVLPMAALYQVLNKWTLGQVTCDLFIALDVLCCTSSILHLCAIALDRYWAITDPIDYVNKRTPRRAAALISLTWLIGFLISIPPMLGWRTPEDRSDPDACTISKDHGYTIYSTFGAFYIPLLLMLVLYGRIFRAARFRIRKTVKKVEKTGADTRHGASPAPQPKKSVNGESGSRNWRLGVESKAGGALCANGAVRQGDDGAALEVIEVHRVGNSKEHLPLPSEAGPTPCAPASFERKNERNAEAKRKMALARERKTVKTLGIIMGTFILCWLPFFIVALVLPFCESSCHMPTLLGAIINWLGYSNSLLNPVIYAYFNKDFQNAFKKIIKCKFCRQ
Assay: 5-HT1A receptor binding ([3H]-8-OH DPAT, HEK 293 cell homogenate)
Conditions: HEK 293 cells expressing 5-HT1A receptors; [3H]-8-OH DPAT (1nM); pH 7.7, 37° C., 45 minutes; read-out: pKi values at 5-HT1A (converted)
Measured Ki values are reported for all entries that follow.

Examples with answers:
Enquiry: Which value of Ki has been reported for COc1ccc(NC(=O)Cc2ccc(-c3cccnc3)c3ccccc23)cc1N1CCN(C)CC1 [Example 28] in the records?
Return: < 0.01 µM

Enquiry: Which value of Ki has been reported for CN1CCN(c2cc(NC(=O)Cc3ccc(-c4ccncc4)c4ccccc34)ccc2Br)CC1 [Example 38] in the records?
Return: < 0.01 µM

Enquiry: Which value of Ki has been reported for CN1CCN(c2cc(NC(=O)Nc3ccc(-c4ccncc4)c4ccccc34)ccc2Cl)CC1 [Example 11] in the records?
Return: < 0.01 µM

Enquiry: Which value of Ki has been reported for COc1ccc(NC(=O)Nc2cccc3c(-c4cccc(C(C)=O)c4)cccc23)cc1N1CCN(C)CC1 [Example 40] in the records?
Return: < 0.01 µM

Enquiry: Which value of Ki has been reported for COc1ccc(NC(=O)Nc2cccc3c(-c4ccccc4)cccc23)cc1N1CCN(C)CC1 [Example 33] in the records?
Return: < 0.01 µM

Below: the item to evaluate.
Enquiry: Which value of Ki has been reported for COc1ccc(NC(=O)Cc2ccc(-c3ccncc3)c3ccccc23)cc1N1CCN(C)CC1 [Example 10] in the records?
Return: < 0.01 µM
